Test system: EPHB4
DETAILS: concentration: 1 μM, replicates: in singlicate; n = 1;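 note: KINOMEscan kinase panel screen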
Label scheme for %Inh: lower than 9% is F, 9% and above is T.

COc1ccc(Nc2nccc(N3CCC(NC(=O)C(C)c4ccc(Cl)cc4)CC3)n2)cc1 (stereo not drawn)
F
O=C1NC(=O)C(c2ccc(Cl)cc2)=C1Nc1ccc(O)cc1
F
O=C1NC(=O)C(c2ccc(Cl)cc2)=C1Nc1cccc(Cl)c1
F
CNc1nc(-c2ccc3c(N)n[nH]c3c2)cc(N2C[C@@H](C(=O)Nc3ccccc3)CC[C@H]2C)n1
T
Cc1ccccc1-c1cc(-c2c[nH]nc2-c2ccccn2)ccn1
T
CS(=O)(=O)Cc1ccc(Nc2nccc(-c3c(-c4cccc(NC(=O)C5CCCCC5)c4)nn4ncccc34)n2)cc1
F

Q: Does `Cc1c(Cn2c3ccccc3n3c(=O)cc(N4CCOCC4)nc23)cccc1C(F)(F)F` have a reported %Inh of at least 9%?
Result: F

Q: Quick check: does COc1ccc(Nc2nccc(N3CCC(NC(=O)C(C)c4ccc(Cl)cc4)C3)n2)cc1 (stereo not drawn) have %Inh greater than or equal to 9%?
Result: F

Q: Check this molecule for %Inh at or above 9%: `CC(=O)c1c(C)c2cnc(Nc3ccc(N4CCNCC4)cn3)nc2n(C2CCCC2)c1=O`
Result: T

Q: Hello, I need to know if `Cc1ccc(NC(=O)c2ccc(Cl)cc2)cc1-c1ccc(C(=O)Nc2ccncc2)cc1` has measured %Inh not below 9%. Thanks!
Result: T

Q: Confirm if %Inh reported for the molecule `Cc1nccc(-c2c(-c3ccc(F)cc3)ncn2CCCN2CCOCC2)n1.Cl` is 9% or above.
Result: F

Q: Please tell me: is the molecule COC(=O)c1cccc(NC(=O)NC2CCN(c3ccnc(Nc4ccc(OC)cc4)n3)C2)c1 (stereo not drawn) at or over 9% in terms of %Inh?
Result: T

Q: Has `COc1cccc(NC(=O)Nc2ccc(C)c(-c3ccc(C(=O)Nc4ccncc4)cc3)c2)c1` a recorded %Inh greater than or equal to 9%?
Result: F

Q: Record `Cn1cncc1-c1cc2c(Nc3ccc(OCc4ccccc4)cc3)ncnc2cn1` ; criterion: %Inh no lower than 9%. Met?
Result: T

Q: Given `Nc1cccc(-c2ccc3c(N)n[nH]c3c2)n1` , state whether its %Inh is at least 9%.
Result: F

Q: Confirm if %Inh reported for the molecule `Cc1ccc(-c2nc(Nc3ccncc3)c3ccccc3n2)s1` is 9% or above.
Result: T

###

Tested on: ADCK4
DETAILS: concentration: 1 μM, replicates: in singlicate; n = 1
MEASURED PARAMETER: %Inh (%)
Report only the number, with the unit % understood.

Q: Fill in the blank: the reported %Inh of `COc1ccc2cc(-c3nc(-c4ccccc4C(C)C)[nH]c3-c3ccncc3)ccc2c1` is ____.
Result: 17

Q: For the compound shown here, `Nc1cccc(-c2ccc3c(N)n[nH]c3c2)n1` , give the reported %Inh.
Result: 0

Q: Find the recorded %Inh belonging to `Nc1nccc(-c2c(-c3ccc(F)cc3)ncn2C2CCN(Cc3ccccc3)CC2)n1` and report it.
Result: 55

Q: For `COc1ccc(CSc2nnc(-c3ccc4c(c3)CCO4)o2)cc1` , what is its reported %Inh?
Result: 0

Q: // lookup %Inh for Cn1cncc1C(=O)NC1CCN(c2ccnc(Nc3ccc(F)cc3)n2)C1 (stereo not drawn)
Result: 26

###

System: SRPK1
DETAILS: concentration: 1 μM, replicates: in singlicate; n = 1
Threshold check on %Inh: at or above 20% gives yes, strictly below gives no.

COc1ccc(Nc2nccc(N3CCC(NC(=O)C(C)c4ccc(Cl)cc4)C3)n2)cc1 (centres unmarked)
yes
Cc1ccccc1Cn1ccn2c(=O)cc(N3CCOCC3)nc12
yes
COc1ccc(Nc2nccc(-c3ccc(NC(=O)c4cc5cc(F)ccc5[nH]4)cc3)n2)cc1
no
COc1ccc(CSc2nnc(-c3ccc4c(c3)CCO4)o2)cc1
no
COC(=O)c1cccc(NC(=O)NC2CCN(c3ccnc(Nc4ccc(F)cc4)n3)C2)c1 (centres unmarked)
yes
CCc1ccc(-c2ccc3c(c2)-c2n[nH]cc2S(=O)(=O)N3C)cc1
no
O=C(Nc1n[nH]c2nc(-c3cccs3)c(Br)cc12)C1CCCC1
no
COc1cccc(CNC(=O)NC2CCN(c3ccnc(Nc4ccc(F)cc4)n3)C2)c1 (centres unmarked)
yes

Q: For this compound, is measured %Inh 20% or higher? `c1ccc(-c2ccnc3[nH]ccc23)cc1`
Result: no

Q: For this compound, is measured %Inh 20% or higher? `Cc1ccc(NC(=O)Nc2ccccc2)cc1-c1ccc(C(=O)Nc2ccncc2)cc1`
Result: yes

Q: Please check the record `Nc1cccc(-c2ccc3c(N)n[nH]c3c2)n1` and state if its %Inh is at or above 20%.
Result: yes

Q: Quick check, %Inh >= 20%? `CSc1ccc(-c2nc3n(c2-c2ccncc2)CCC3)cc1`
Result: no

Q: Check this compound for %Inh at or above 20%: `Cc1ccc(NC(=O)c2ccc(Cl)cc2)cc1-c1ccc(C(=O)Nc2ccncc2)cc1`
Result: no

Q: Evaluate `COc1nccc(-c2c(-c3ccc(F)cc3)ncn2CCCN2CCOCC2)n1` : %Inh at minimum 20%?
Result: no

Q: Quick check, %Inh >= 20%? `Cc1c(Cn2c3ccccc3n3c(=O)cc(N4CCOCC4)nc23)cccc1C(F)(F)F`
Result: yes

Q: Form field: %Inh at least 20%? Entry: `CCCCc1nn2ncccc2c1-c1ccnc(NC2CC2)n1`
Result: no

###

Each entry below carries its reported %Inh.
System: CLK1
DETAILS: concentration: 1 μM, replicates: in singlicate; n = 1
Quick note: give the figure in %, leave out the unit.

# example entries with known answers
Cc1ccc(NC(=O)Nc2ccc(Cl)cc2)cc1-c1ccc(C(=O)Nc2ccncc2)cc1
32
COC(=O)c1cccc(NC(=O)NC2CCN(c3ccnc(Nc4ccc(OC)cc4)n3)C2)c1 (stereo not drawn)
21
CNc1nc(-c2ccc3c(N)n[nH]c3c2)cc(N2C[C@@H](C(=O)NC3CCCCC3)OC[C@H]2C)n1
21
Cc1nccc(-c2c(-c3ccc(F)cc3)ncn2CCCN2CCOCC2)n1.Cl
21
COc1ccc(CSc2nnc(-c3ccc4nccn4c3)o2)cc1C(F)(F)F
97.1

Please examine the following record next.
Q: Item under review: `COc1ccc(CSc2nnc(-c3ccc4ncsc4c3)o2)cc1C(F)(F)F` . Reported %Inh?
Result: 90.5

###

Test system: JAK1(JH2domain-pseudokinase)
DETAILS: concentration: 1 μM, replicates: in singlicate; n = 1
MEASURED PARAMETER: %Inh (%)
// units = %; emit number, no label

NS(=O)(=O)c1cccc(N/C=C2\C(=O)Nc3ccc(S(=O)(=O)Cc4c(Cl)cccc4Cl)cc32)c1
0

Q: Quick check: %Inh on JAK1(JH2domain-pseudokinase), item O=C(Nc1n[nH]c2nc(-c3ccco3)c(Br)cc12)C1CCN(Cc2ccccc2)C1.O=C(O)[C@H](O)[C@@H](O)C(=O)O (stereo not drawn) ?
Result: 61

Q: # query: %Inh | item CC(=O)c1cccc(NC(=O)NC2CCN(c3ccnc(Nc4ccc(F)cc4)n3)C2)c1 (stereo not drawn) | system: JAK1(JH2domain-pseudokinase)
Result: 9

Q: Short answer please: %Inh, JAK1(JH2domain-pseudokinase), entry `CNc1cc(-c2ccc3c(N)n[nH]c3c2)nc(N)n1`
Result: 35

Q: Find the measured %Inh: item COc1ccc(Nc2nccc(N3CCC(NC(=O)c4cc5ccccc5s4)C3)n2)cc1 (stereo not drawn) , target or system JAK1(JH2domain-pseudokinase).
Result: 0

###

Reported %Inh by item:
Test system: TBK1
DETAILS: concentration: 1 μM, replicates: in singlicate; n = 1
The figure you give is taken to be in %; do not add the unit.

Field: example entries. Status: answers known.
CNCc1ccc2nc(NC(=O)c3ccc(C(C)(C)C)cc3)cn2c1
0
CCCCc1nn2ncccc2c1-c1ccnc(NC2CC2)n1
7
O=C(Nc1n[nH]c2nc(-c3ccco3)c(Br)cc12)C1CCN(Cc2ccccc2)C1.O=C(O)[C@H](O)[C@@H](O)C(=O)O (stereo not shown)
18

Lab note: next compound to report on.
Q: Tell me the measured %Inh of COC(=O)C(NC(=O)NC1CCN(c2ccnc(Nc3ccc(F)cc3)n2)C1)c1ccccc1 (stereo not shown) , please.
Result: 18

###

molecules and their reported %Inh
Test system: PLK3
DETAILS: concentration: 1 μM, replicates: in singlicate; n = 1
# output: bare number, implied unit %

The cases that follow already have their %Inh on record.
NS(=O)(=O)c1cccc(N/C=C2\C(=O)Nc3ccc(S(=O)(=O)Cc4c(Cl)cccc4Cl)cc32)c1 [GSK398099]
0
O=C(Nc1n[nH]c2nc(-c3cccs3)c(Br)cc12)C1CCCC1 [SB-743341]
26
COC(=O)C(Cc1ccccc1)NC(=O)NC1CCN(c2ccnc(Nc3ccc(F)cc3)n2)C1 (stereo not drawn) [GSK1379714]
0
COc1ccc2cc(-c3nc(-c4ccccc4C(C)C)[nH]c3-c3ccncc3)ccc2c1 [SB-660566]
0
CN1c2ccc(-c3ccc(C(N)=O)cc3)cc2-c2[nH]ncc2S1(=O)=O
13
CS(=O)(=O)CCNCc1nc(-c2ccc3ncnc(Nc4ccc(OCc5ccccc5)c(Cl)c4)c3c2)cs1.Cl [GW582764]
0
Cc1cccc2c(-c3ccncn3)c(-c3ccc(F)cc3)nn12 [GW515532]
0
Cn1cncc1-c1cc2c(Nc3ccc(OCc4ccccc4)cc3)ncnc2cn1 [GW281179]
0

Let us move to another entry and its %Inh.
Q: Quick one: %Inh for O=C1NC(=O)C(c2ccc(Cl)cc2)=C1Nc1cccc(Cl)c1 [SB-317651] ?
Result: 30
